Collected Th-T fluorescence, mean of three wells values appear next to each entry.
test_system: Aβ42 (Homo sapiens)
measurement_notes: Th-T (thioflavin-T) assay of Aβ42 aggregation
Type: biochemical
experimental_context: Supplementary Fig. 47 source data; measurement M49 of time course
Answer with a number only.

Observe how each entry below is paired with its result.
compound: C=C1CC[C@H]2[C@]3(C)C[C@@H](C=C(C)C)O[C@H]3CC[C@]2(C)[C@@H]1Cc1c(OC)oc(CO)c(C)c1=O
meas_value: 3.497

compound: C=C1CCC2C(C)(CC(=O)C=C(C)C)C(O)CCC2(C)C1Cc1c(OC)oc(C)c(C)c1=O (stereo not drawn)
meas_value: 3.767

compound: C=C1CCC2C(C)(CCC=C(C)C)C(=O)CCC2(C)C1Cc1c(O)c(C)c(C)oc1=O (stereo not drawn)
meas_value: 2.2088

compound: C=C1CC[C@@H]2[C@](C)(CC[C@H]3O[C@H](C=C(C)C)C[C@@]23C)[C@@H]1Cc1c(O)c(C)c(C)oc1=O
meas_value: 3.124

compound: C=C1CC[C@H]2[C@]3(C)C[C@@H](C=C(C)C)O[C@H]3CC[C@]2(C)[C@@H]1Cc1c(O)c(C)c(C)oc1=O
meas_value: 2.687

Problem: Fill blank: measured Th-T fluorescence, mean of three wells of the compound C=C1CCC2C3(C)CC(C=C(C)C)OC3CCC2(C)C1Cc1c(OC)oc(C)c(C)c1=O (stereo not drawn) is ____.
Solution: 4.026

====

test_system: Aβ42 (Homo sapiens)
measurement_notes: Th-T (thioflavin-T) assay of Aβ42 aggregation
Type: biochemical
experimental_context: column suffix _10; reading M101
measured_endpoint: Fig. 7a Th-T reading, mean of three wells
The answer should be a number; do not append a unit.

molecule: C=C1CC[C@@H]2[C@](C)(CC[C@H]3O[C@H](C=C(C)C)C[C@@]23C)[C@@H]1Cc1c(OC)oc(CO)c(C(=O)OC)c1=O
test_system: Aβ42 (Homo sapiens)
meas_value: 1.644
--
molecule: C=C1CC[C@@H]2[C@](C)(CC[C@H]3O[C@H](C=C(C)C)C[C@@]23C)[C@@H]1Cc1c(OC)oc(CO)c(C)c1=O
test_system: Aβ42 (Homo sapiens)
meas_value: 3.313

Problem: Find the recorded Fig. 7a Th-T reading, mean of three wells belonging to C=C1CCC2C(C)(CCC=C(C)C)C(O)CCC2(C)C1Cc1c(OC)oc(CO)c(C(=O)OC)c1=O (centres unmarked) and report it.
Solution: 1.545

Problem: Also check C=C1CCC2C(C)(CCC=C(C)C)C(O)CCC2(C)C1Cc1c(OC)oc(CO)c(C)c1=O (centres unmarked)
Solution: 2.854

Problem: Next molecule: C=C1CCC2C(C)(CCC=C(C)C)C(O)CCC2(C)C1Cc1c(OC)oc(C)c(C(=O)OC)c1=O (centres unmarked)
Solution: 2.83

====

Recorded Th-T fluorescence, mean of three wells (Fig. 7a), one value per entry.
test_system: Aβ42 (Homo sapiens, UniProt P05067)
Sequence (P05067 672-713): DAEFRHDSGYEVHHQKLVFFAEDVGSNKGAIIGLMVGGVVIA
measurement_notes: Th-T (thioflavin-T) assay of Aβ42 aggregation
Assay type: biochemical
experimental_context: reading M113; compound at 20 (head suffix _20)
Give a plain numeric answer without units written out.

compound: C=C1CCC2C(C)(CCC=C(C)C)C(O)CCC2(C)C1Cc1c(OC)oc(CO)c(C(=O)OC)c1=O (centres unmarked)
meas_value: 1.03
--
compound: C=C1CCC2C(C)(CCC=C(C)C)C(O)CCC2(C)C1Cc1c(OC)oc(CO)c(C)c1=O (centres unmarked)
meas_value: 2.1068
--
compound: C=C1CC[C@@H]2[C@](C)(CC[C@H]3O[C@H](C=C(C)C)C[C@@]23C)[C@@H]1Cc1c(OC)oc(CO)c(C(=O)OC)c1=O
meas_value: 0.9626
--
compound: C=C1CC[C@@H]2[C@](C)(CC[C@H]3O[C@H](C=C(C)C)C[C@@]23C)[C@@H]1Cc1c(OC)oc(CO)c(C)c1=O
meas_value: 3.181

Let's switch to this compound now.
Problem: Given the compound C=C1CCC2C(C)(CCC=C(C)C)C(O)CCC2(C)C1Cc1c(OC)oc(C)c(C(=O)OC)c1=O (centres unmarked) , what is its reported Th-T fluorescence, mean of three wells (Fig. 7a)?
Solution: 1.686

====

test_system: Aβ42 (Homo sapiens, UniProt P05067)
measurement_notes: Th-T (thioflavin-T) assay of Aβ42 aggregation
Assay type: biochemical
experimental_context: measurement M8; source data, Ab alone and No Ab as controls
measured_endpoint: Th-T assay plate reading, mean of three wells (Supplementary Fig. 47)

Known results for compounds:
compound: C=C1CCC2C(C)(CCC=C(C)C)C(O)CCC2(C)C1Cc1c(OC)oc(CO)c(C(=O)OC)c1=O (stereo not shown)
meas_value: 0.1852
//
compound: C=C1CCC2C(C)(CCC=C(C)C)C(O)CCC2(C)C1Cc1c(O)c(C)c(C)oc1=O (stereo not shown) [Compound 9, higginsianin B]
meas_value: 0.4241
//
compound: C=C1CCC2C(C)(CC(=O)C=C(C)C)C(O)CCC2(C)C1Cc1c(OC)oc(CO)c(C)c1=O (stereo not shown)
meas_value: 0.6497
//
compound: C=C1CCC2C(C)(CC(=O)C=C(C)C)C(O)CCC2(C)C1Cc1c(O)c(C)c(C)oc1=O (stereo not shown)
meas_value: 0.5767
//
compound: C=C1CCC2C(C)(CCC=C(C)C)C(=O)CCC2(C)C1Cc1c(O)c(C)c(C)oc1=O (stereo not shown)
meas_value: 0.4027

Problem: Provide the documented Th-T assay plate reading, mean of three wells (Supplementary Fig. 47) with Aβ42 (Homo sapiens, UniProt P05067) as the system for C=C1CCC2C(C)(CCC=C(C)C)C(O)CCC2(C)C1Cc1c(OC)oc(C)c(C(=O)OC)c1=O (stereo not shown)
Solution: 0.3078

Problem: Same question for "C=C1CC[C@H]2[C@]3(C)C[C@@H](C=C(C)C)O[C@H]3CC[C@]2(C)[C@@H]1Cc1c(O)c(C)c(C)oc1=O" please.
Solution: 0.6432

====

Test system: MAGI cells
measurement_notes: cytotoxicity in the anti-HIV assay (CC50)
Format: cell-based
experimental_context: average of numeric determinations
measured_endpoint: Cytotoxicity Avg. (µM)
Dear colleague, please return just the value in µM, with no unit written.

compound: C=C1CCC2C3(C)CC(C=C(C)C)OC3CCC2(C)C1Cc1c(OC)oc(C)c(C)c1=O (centres unmarked)
endpoint_unit: µM
Cytotoxicity Avg.: 5.617

Okay, now this compound:
Problem: Please look up its Cytotoxicity Avg.: C=C1CCC2C(C)(CCC=C(C)C)C(O)CCC2(C)C1Cc1c(OC)oc(CO)c(C)c1=O (centres unmarked)
Solution: 6.65

====

Test system: l(2)mbn cells
measurement_notes: cytotoxicity in Drosophila l(2)mbn cells
Format: cell-based
experimental_context: 1 µM, replicate 1
measured_endpoint: Luminescence Raw1
Please give only the number in your answer, with no unit.

Look over these answered cases.
compound: C=C1CCC2C(C)(CCC=C(C)C)C(O)CCC2(C)C1Cc1c(OC)oc(CO)c(C)c1=O (centres unmarked)
Luminescence Raw1: 2865222

compound: C=C1CCC2C(C)(CCC=C(C)C)C(=O)CCC2(C)C1Cc1c(O)c(C)c(C)oc1=O (centres unmarked)
Luminescence Raw1: 5444928

compound: C=C1CCC2C(C)(CCC=C(C)C)C(O)CCC2(C)C1Cc1c(OC)oc(CO)c(C(=O)OC)c1=O (centres unmarked)
Luminescence Raw1: 4025701

compound: C=C1CC[C@@H]2[C@](C)(CC[C@H]3O[C@H](C=C(C)C)C[C@@]23C)[C@@H]1Cc1c(O)c(C)c(C)oc1=O
Luminescence Raw1: 521407

Note: attention shifts to another entry.
Problem: Consider the compound C=C1CCC2C(C)(CCC=C(C)C)C(O)CCC2(C)C1Cc1c(O)c(C)c(C)oc1=O (centres unmarked) and give its measured Luminescence Raw1.
Solution: 5427969

====

test_system: Aβ42 (Homo sapiens)
measurement_notes: Th-T (thioflavin-T) assay of Aβ42 aggregation
Assay type: biochemical
experimental_context: reading M34; Supplementary Fig. 47 source data
Decide by Th-T fluorescence, mean of three wells: equal to or exceeding 3 means Condition met, less means Condition not met.

Please review the entries below; each comes with its answer.
molecule: C=C1CCC2C(C)(CC(=O)C=C(C)C)C(O)CCC2(C)C1Cc1c(O)c(C)c(C)oc1=O (stereo not shown)
label: Condition met

molecule: C=C1CCC2C(C)(CCC=C(C)C)C(=O)CCC2(C)C1Cc1c(O)c(C)c(C)oc1=O (stereo not shown)
label: Condition not met

molecule: CC(C)=CCC/C(C)=C/CC/C(C)=C/CC/C(C)=C/Cc1c(O)c(C)c(C)oc1=O
label: Condition not met

molecule: C=C1CC[C@H]2[C@]3(C)C[C@H](C=C(C)C)O[C@H]3CC[C@]2(C)[C@@H]1Cc1c(OC)oc(CO)c(C)c1=O
label: Condition met

molecule: C=C1CC[C@H]2[C@]3(C)C[C@@H](C=C(C)C)O[C@H]3CC[C@]2(C)[C@@H]1Cc1c(O)c(C)c(C)oc1=O
label: Condition not met

Now let's try a different one.
Problem: Record C=C1CCC2C(C)(CC(=O)C=C(C)C)C(O)CCC2(C)C1Cc1c(OC)oc(C)c(C)c1=O (stereo not shown) ; criterion: Th-T fluorescence, mean of three wells no lower than 3. Met?
Solution: Condition met
